The origin of these recorded values is patent US10377711B2.

assay-details: in vitro
study-conditions: both, rat, microsomes, pH 7.4

molecule: Cc1ccc2c(C(C[N+](=O)[O-])c3cccs3)c(-c3ccccc3)[nH]c2c1 (stereo not shown) [ZCZ011]
units-symbol: µL/min/mg
microsomal CLint at 3 μM: 127

* * *

assay-details: in vitro
study-conditions: both, rat, microsomes, pH 7.4

molecule: Cc1ccc2c(C(C[N+](=O)[O-])c3cccs3)c(-c3ccccc3)[nH]c2c1 (stereo not shown)
half-life at 3 μM (min): 8.1

* * *

system-under-test: CB1 receptor (HEK293 CB1 β-arrestin cells) (Homo sapiens, UniProt P21554)
Construct: host or cells: HEK293 CB1 β-arrestin cells (PathHunter)
Sequence (P21554 whole entry): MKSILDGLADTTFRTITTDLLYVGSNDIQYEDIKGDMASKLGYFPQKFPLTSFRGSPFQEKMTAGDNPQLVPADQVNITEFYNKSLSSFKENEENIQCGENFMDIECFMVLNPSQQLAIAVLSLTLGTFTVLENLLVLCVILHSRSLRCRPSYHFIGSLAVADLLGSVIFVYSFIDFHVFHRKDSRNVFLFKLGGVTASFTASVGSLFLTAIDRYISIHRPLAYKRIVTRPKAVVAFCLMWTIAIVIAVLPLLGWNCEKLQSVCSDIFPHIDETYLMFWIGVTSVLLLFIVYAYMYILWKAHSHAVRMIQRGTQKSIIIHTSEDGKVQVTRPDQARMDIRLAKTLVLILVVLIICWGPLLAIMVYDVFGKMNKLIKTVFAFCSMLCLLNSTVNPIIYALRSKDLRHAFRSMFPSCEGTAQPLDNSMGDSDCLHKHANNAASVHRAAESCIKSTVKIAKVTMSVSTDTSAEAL
assay-details: PathHunter β-Arrestin assay, enhancement of anandamide stimulation
Type: cell-based
study-conditions: 1000 nM test compound; maximum % increase in stimulation caused by anandamide
observable: Potency % Enhancement 1000 nM (%)

molecule: Cc1ccc2c(C(C[N+](=O)[O-])c3cccs3)c(-c3ccccc3)[nH]c2c1 (centres unmarked)
observable: Potency % Enhancement 1000 nM
units-symbol: %
reported: 126.0
//
molecule: O=S(=O)(NC(c1ccccc1)c1c(-c2ccccc2)[nH]c2ccccc12)c1ccccc1 (centres unmarked)
observable: Potency % Enhancement 1000 nM
units-symbol: %
reported: 0
//
molecule: Cc1ccc2c(C(C[N+](=O)[O-])c3ccccc3)c(-c3ccccc3)[nH]c2c1 (centres unmarked)
observable: Potency % Enhancement 1000 nM
units-symbol: %
reported: 76.8
//
molecule: N#CCC(c1ccccc1)c1c(-c2ccccc2)[nH]c2ccccc12 (centres unmarked)
observable: Potency % Enhancement 1000 nM
units-symbol: %
reported: 21.9
//
molecule: O=C(O)CC(c1ccccc1)c1c(-c2ccccc2)[nH]c2ccccc12 (centres unmarked) [ABD1101a]
observable: Potency % Enhancement 1000 nM
units-symbol: %
reported: 0

* * *

Each item that follows carries a reported Potency % Enhancement 1000 nM.
system-under-test: CB1 receptor (HEK293 CB1 β-arrestin cells) (Homo sapiens, UniProt P21554)
Construct: host or cells: HEK293 CB1 β-arrestin cells (PathHunter)
assay-details: PathHunter β-Arrestin assay, enhancement of anandamide stimulation
Format: cell-based
study-conditions: 1000 nM test compound; maximum % increase in stimulation caused by anandamide
observable: Potency % Enhancement 1000 nM (%)

compound: Cc1ccc2c(C(c3cccs3)C(C#N)C#N)c(-c3ccccc3)[nH]c2c1 (stereo not drawn) [ABD1155]
reported: 67.4
--
compound: Cc1ccc2c(C(CC#N)c3ccccc3)c(-c3ccccc3)[nH]c2c1 (stereo not drawn) [ABD1132]
reported: 80.6
--
compound: CS(=O)(=O)NC(c1ccccc1)c1c(-c2ccccc2)[nH]c2ccccc12 (stereo not drawn) [ABD1097]
reported: 0
--
compound: NC(=O)CC(c1ccccc1)c1c(-c2ccccc2)[nH]c2ccccc12 (stereo not drawn) [ABD1105]
reported: 0
--
compound: Cc1ccc2c(C(c3ccccc3)C(C#N)C#N)c(-c3ccccc3)[nH]c2c1 (stereo not drawn) [ABD1133]
reported: 40.4
--
compound: NNC(=O)CC(c1ccccc1)c1c(-c2ccccc2)[nH]c2ccccc12 (stereo not drawn) [ABD1131]
reported: 0
--
compound: CS(=O)(=O)NCC(c1ccccc1)c1c(-c2ccccc2)[nH]c2ccccc12 (stereo not drawn) [ABD1009]
reported: 0
--
compound: O=C(C(c1ccccc1)c1c(-c2ccccc2)[nH]c2ccccc12)C(F)(F)F (stereo not drawn) [ABD1139]
reported: 18.6
--
compound: c1ccc(-c2[nH]c3ccccc3c2C(Cn2ccnn2)c2ccccc2)cc1 (stereo not drawn) [ABD1117]
reported: 0
--
compound: Cc1ccc2c(C(CC(F)(F)F)c3ccccc3)c(-c3ccccc3)[nH]c2c1 (stereo not drawn) [ABD1145]
reported: 61.9
--
compound: FC(F)(F)CC(c1ccccc1)c1c(-c2ccccc2)[nH]c2ccccc12 (stereo not drawn) [ABD1137]
reported: 20.7
--
compound: CNC(=O)CC(c1ccccc1)c1c(-c2ccccc2)[nH]c2ccccc12 (stereo not drawn) [ABD1106]
reported: 0
--
compound: N#CC(C#N)C(c1ccccc1)c1c(-c2ccccc2)[nH]c2ccccc12 (stereo not drawn) [ABD1100]
reported: 19.6
--
compound: NCC(c1ccccc1)c1c(-c2ccccc2)[nH]c2ccccc12 (stereo not drawn) [ABD1009a]
reported: 0
--
compound: Cc1ccc2c(C(C(=O)C(F)(F)F)c3ccccc3)c(-c3ccccc3)[nH]c2c1 (stereo not drawn) [ABD1146]
reported: 81.0
